Where do these numbers come from? They come from PubChem BioAssay (NCI).

System: A549/ATCC NSCLC
experiment-summary: NCI-60 one-dose screen, 48 h
measurement-context: 10 µM unless noted
Compounds without any hit were thinned out: in the full panel of roughly 83,000, 20% have a hit. Activity calls are given as the source filed them. How the source made its calls: active means growth percent below 10; inactive means the rest.
Just give me one of these, please: active, inactive

CN1CCC[C@]2(C)[C@H]3CC[C@@H]4[C@@H]5[C@H]6OC[C@@]5(CCC6(C)C)CC[C@@]4(C)[C@]3(C)CC[C@H]2C1(C)C
inactive
CC1=C(C)C(=O)C(Nc2ccc3c(c2)OCCO3)=C(Br)C1=O
inactive
CC(C)(C)OC(=O)NCc1ccc(CNc2c([N+](=O)[O-])cnc3ccccc23)cc1
inactive
COc1ccc2c(c1)c(-c1nc(N)nnc1-c1c[nH]c3ccccc13)cn2C
inactive

Which outcome was assigned to COc1ccc(C(C)=C(c2ccc(OCCN(C)C)cc2)c2ccc(OCCN(C)C)cc2)cc1 in this test?
active

Which outcome was assigned to CCN(CC)S(=O)(=O)c1ccc(-c2nc(C(Cl)Cl)nc3cc(C)nn23)cc1 in this test?
active

Which outcome was assigned to Cc1[nH]c(C(=O)Nc2ccc(C(=O)NCC3CCNCC3)cc2OC(C)C)c(Cl)c1Cl in this test?
inactive

Which outcome was assigned to Cc1ccc2c(n1)C(=O)C(Cl)=C(Nc1ccc(C(=O)OC(C)(C)C)cc1)C2=O in this test?
inactive

---

Field: growth. Provide a value for each of the molecules that follow.
Test system: KM12 colon
experiment-summary: NCI-60 one-dose screen, 48 h (100 = growth as untreated, 0 = no growth, -100 = all killed)
measurement-context: 10 µM unless noted
Compounds without any hit were thinned out: in the full panel of roughly 83,000, 20% have a hit.
One number for each entry, in %.

Sample records with growth:
Cc1c(C(=O)/C=C/c2ccc(Cl)cc2)nnn1-c1ccc2oc(=O)ccc2c1
99.8
CC[C@H](CC[C@@H](C)[C@H]1CC[C@H]2[C@@H]3CC(=O)C4=CC(=O)/C(=C/c5ccc([N+](=O)[O-])cc5)C[C@]4(C)[C@H]3CC[C@]12C)C(C)C
100

For each of the molecules below, state growth.
1. N#C/C(=C\c1ccc(-c2ccc(Cl)c(Cl)c2)o1)C(=O)Nc1ncc(Cc2ccc(Cl)cc2)s1
2. Cc1cc(=O)oc2cc(OCCCOc3ccc(/C=C/C(=O)Nc4ccc(Br)cc4)cc3)ccc12
3. CCc1cc(OC(=O)N2CCN(CCC(C)(COC(C)(C)C)COC(C)(C)C)CC2)ccc1Nc1cc(-c2ccc(-n3cccn3)cc2)[nH]n1
4. C#CCOc1ccc(-c2csc(NC(=O)C=C)n2)cc1NS(=O)(=O)c1cccc2c(N(C)C)cccc12

1: 19.6; 2: 88.6; 3: 85.6; 4: 63.1

For each of the molecules below, state growth.
1. O=C(/C=C/c1ccccc1Cl)Nc1ncc(Cc2cc(Cl)ccc2Cl)s1
2. CN1CCN(c2ccc(Nc3nc(NCCCNS(=O)(=O)c4cccc(F)c4)c4sccc4n3)cc2)CC1

1. 22.1
2. 54

---

Field: growth. Provide a value for each of the molecules that follow.
Test system: A549/ATCC NSCLC
experiment-summary: NCI-60 one-dose screen, 48 h (100 = growth as untreated, 0 = no growth, -100 = all killed)
measurement-context: 10 µM unless noted
Protocol: Growth inhibition of the A549/ATCC human Non-Small Cell Lung tumor cell line is measured as a screen for anti-cancer activity. Cells are grown in 96 well plates and exposed to the test compound for 48 hours. Compounds are tested at a single concentration, which is 10^-5 M for most compounds. The reported endpoint is percent growth (GI% or GIPRCNT), where numbers from 0 - 100% represent growth inhibition, and numbers from -100% - 0 represent cell death. […]
The panel holds about 83,000 compounds, 20% with a hit somewhere; the sample as a whole holds those more often.
One number for each entry, in %.

For each of the molecules below, state growth.
1. CN1CCN(Cc2ccc(NC(=O)c3cncc(C#Cc4cnc5ccc(NCCO)nn45)c3)cc2C(F)(F)F)CC1
2. CN1CCN(Cc2ccc(NC(=O)c3cncc(C#Cc4cnc5ccc(N6CCOCC6)nn45)c3)cc2C(F)(F)F)CC1
3. CC(C)NC(=O)c1cc(-c2ccc(NC(=O)Nc3ccc(F)cc3)cc2)nc2cccnc12
4. O=C(Nc1ccc(N2CCOCC2)cc1)Nc1ccc2c(ccn2C(=O)c2cccc(F)c2)c1
5. COc1ccc2c(c1)c(/C=N/Nc1ccnc3cc(Cl)ccc13)cn2C
6. C#C[C@]1(O)CC[C@H]2[C@@H]3CC=C4c5sc(Nc6ncccc6C)nc5CC[C@]4(C)[C@H]3CC[C@@]21C
7. CCCC/C(=C\c1ccc(O)c(O)c1)C(=O)NC(Cc1ccccc1)C(=O)C(=O)NCCc1ccc(OC)cc1 (stereo not drawn)

1: 1.34; 2: -84.9; 3: 104; 4: 59.5; 5: -69.7; 6: 21.8; 7: 103

Short answer on A549/ATCC NSCLC for C[C@]12CC[C@H]3[C@@H](CC=C4C[C@@H](O)CC[C@@]43C)[C@@H]1CC[C@@H]2[C@](C)(O)CCc1cccnc1 , growth: 70.1
